target: Epidermal growth factor receptor (Homo sapiens, UniProt P00533); assay: Inhibition of epidermal growth factor receptor (EGFr)
Sequence (P00533 whole entry): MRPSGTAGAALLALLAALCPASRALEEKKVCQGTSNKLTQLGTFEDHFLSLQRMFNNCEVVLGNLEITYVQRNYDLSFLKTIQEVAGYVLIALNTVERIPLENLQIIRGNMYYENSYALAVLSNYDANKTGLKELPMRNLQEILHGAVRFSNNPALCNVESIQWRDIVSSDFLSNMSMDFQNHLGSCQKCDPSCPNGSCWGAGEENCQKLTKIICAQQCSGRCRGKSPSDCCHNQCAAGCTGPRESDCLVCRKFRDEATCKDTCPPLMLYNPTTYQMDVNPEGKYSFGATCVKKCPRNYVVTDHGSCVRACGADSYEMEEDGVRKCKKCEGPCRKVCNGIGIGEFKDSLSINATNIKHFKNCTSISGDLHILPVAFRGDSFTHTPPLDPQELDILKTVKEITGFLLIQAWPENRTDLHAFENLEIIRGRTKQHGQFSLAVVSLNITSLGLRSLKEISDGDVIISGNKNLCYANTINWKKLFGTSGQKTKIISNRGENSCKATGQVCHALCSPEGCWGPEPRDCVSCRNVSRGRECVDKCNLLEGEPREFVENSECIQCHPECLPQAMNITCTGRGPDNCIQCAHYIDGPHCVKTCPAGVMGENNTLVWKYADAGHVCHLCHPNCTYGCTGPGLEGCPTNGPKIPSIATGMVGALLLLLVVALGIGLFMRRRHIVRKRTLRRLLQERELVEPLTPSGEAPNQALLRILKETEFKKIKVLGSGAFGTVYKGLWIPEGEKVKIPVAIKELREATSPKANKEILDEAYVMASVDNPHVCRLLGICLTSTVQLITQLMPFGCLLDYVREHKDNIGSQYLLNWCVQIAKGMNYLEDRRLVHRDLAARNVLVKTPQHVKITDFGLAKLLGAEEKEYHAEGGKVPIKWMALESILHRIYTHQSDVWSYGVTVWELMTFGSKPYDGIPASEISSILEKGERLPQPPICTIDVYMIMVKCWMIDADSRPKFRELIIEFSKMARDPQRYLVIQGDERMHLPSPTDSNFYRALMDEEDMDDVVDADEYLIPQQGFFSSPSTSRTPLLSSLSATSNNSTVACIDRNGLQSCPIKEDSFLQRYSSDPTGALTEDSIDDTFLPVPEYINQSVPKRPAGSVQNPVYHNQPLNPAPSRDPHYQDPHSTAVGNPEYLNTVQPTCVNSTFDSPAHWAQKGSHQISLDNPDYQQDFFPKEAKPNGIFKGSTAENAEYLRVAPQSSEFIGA
MEASURED_METRIC: IC50

| MOLECULE | ASSAY_SYSTEM | RECORDED_MEASUREMENT |
| --- | --- | --- |
| N[C@H](Cc1c([Se][Se]c2[nH]c3ccccc3c2C[C@H](N)C(=O)NCc2ccccc2)[nH]c2ccccc12)C(=O)NCc1ccccc1 (stereo in doubt; 34) | Epidermal growth factor receptor (Homo sapiens, UniProt P00533) | 1.3 µM |
| O=C(NCc1ccccc1)[C@H](Cc1c([Se]c2[nH]c3ccccc3c2C[C@@H](NC(=O)C(F)(F)F)C(=O)NCc2ccccc2)[nH]c2ccccc12)NC(=O)C(F)(F)F | Epidermal growth factor receptor (Homo sapiens, UniProt P00533) | > 50 µM |
| CNC(=O)c1c([Se][Se]c2c(C(=O)NC)c3ccccc3n2C)n(C)c2ccccc12 | Epidermal growth factor receptor (Homo sapiens, UniProt P00533) | 6.1 µM |
| N[C@H](Cc1c([Se][Se]c2[nH]c3ccccc3c2C[C@H](N)C(=O)NCc2ccccc2)[nH]c2ccccc12)C(=O)NCc1ccccc1 (stereo in doubt; 33) | Epidermal growth factor receptor (Homo sapiens, UniProt P00533) | 0.9 µM |
| Cn1c([Se][Se]c2c(C(=O)OC(C)(C)C)c3ccccc3n2C)c(C(=O)OC(C)(C)C)c2ccccc21 | Epidermal growth factor receptor (Homo sapiens, UniProt P00533) | > 100 µM |
| O=C(NCc1ccccc1)[C@H](Cc1c([Se][Se]c2[nH]c3ccccc3c2C[C@@H](NC(=O)C(F)(F)F)C(=O)NCc2ccccc2)[nH]c2ccccc12)NC(=O)C(F)(F)F | Epidermal growth factor receptor (Homo sapiens, UniProt P00533) | 7 µM |
| NC(Cc1c(SSc2[nH]c3ccccc3c2CC(N)C(=O)NCc2ccccc2)[nH]c2ccccc12)C(=O)NCc1ccccc1 (stereo not drawn) | Epidermal growth factor receptor (Homo sapiens, UniProt P00533) | 7.4 µM |

Form field: reported IC50 of CNC(=O)c1c(SSc2c(C(=O)NC)c3ccccc3n2C)n(C)c2ccccc12
6.9 µM

###

assay: Inhibition of Src tyrosine kinase
Friendly reminder: IC50 below 3000 nM is true, at or above is false.

| COMPOUND | CLASSIFICATION |
| --- | --- |
| CNC(=O)c1c([Se][Se]c2c(C(=O)NC)c3ccccc3n2C)n(C)c2ccccc12 | true |
| Cn1c([Se][Se]c2c(C(=O)OC(C)(C)C)c3ccccc3n2C)c(C(=O)OC(C)(C)C)c2ccccc21 | true |
| CNC(=O)c1c(SSc2c(C(=O)NC)c3ccccc3n2C)n(C)c2ccccc12 | false |
| CCN(CC)CCNC(=O)c1c([Se][Se]c2c(C(=O)NCCN(CC)CC)c3ccccc3n2C)n(C)c2ccccc12 | true |
| O=C(NCc1ccccc1)[C@H](Cc1c([Se][Se]c2[nH]c3ccccc3c2C[C@@H](NC(=O)C(F)(F)F)C(=O)NCc2ccccc2)[nH]c2ccccc12)NC(=O)C(F)(F)F | false |
| CCN(CC)CCNC(=O)c1c([Se][Se]c2[nH]c3ccccc3c2C(=O)NCCN(CC)CC)[nH]c2ccccc12 | false |
| Cn1c([Se][Se]c2c(C(=O)O)c3ccccc3n2C)c(C(=O)O)c2ccccc21 | true |
| CCN(CC)CCn1c([Se][Se]c2c(C(=O)NC)c3ccccc3n2CCN(CC)CC)c(C(=O)NC)c2ccccc21 | true |

Strictly below 3000 nM in IC50? N[C@H](Cc1c([Se][Se]c2[nH]c3ccccc3c2C[C@H](N)C(=O)NCc2ccccc2)[nH]c2ccccc12)C(=O)NCc1ccccc1 (stereo in doubt; 33)
true

Please state whether IC50 is below 3000 nM for O=C(NCc1ccccc1)[C@H](Cc1c([Se]c2[nH]c3ccccc3c2C[C@@H](NC(=O)C(F)(F)F)C(=O)NCc2ccccc2)[nH]c2ccccc12)NC(=O)C(F)(F)F
false

In the record for CNC(=O)c1c([Se][Se]c2[nH]c3ccccc3c2C(=O)NC)[nH]c2ccccc12 , is IC50 less than 3000 nM?
true

In the record for N[C@H](Cc1c([Se][Se]c2[nH]c3ccccc3c2C[C@H](N)C(=O)NCc2ccccc2)[nH]c2ccccc12)C(=O)NCc1ccccc1 (stereo in doubt; 34) , is IC50 less than 3000 nM?
false
